Overview of recorded Percent cleavage for various proteins
Biological target: AxCT mask27 EpCAM H90 L001 version 1
measurementKind: Percent cleavage (%)

Neutrophil Elastase (protein) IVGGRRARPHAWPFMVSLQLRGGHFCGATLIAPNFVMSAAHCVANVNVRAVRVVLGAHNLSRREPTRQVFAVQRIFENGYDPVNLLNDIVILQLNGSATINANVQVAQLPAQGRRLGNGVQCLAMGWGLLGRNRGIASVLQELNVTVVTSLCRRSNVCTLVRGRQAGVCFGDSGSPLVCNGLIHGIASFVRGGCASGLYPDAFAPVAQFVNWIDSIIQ	44
MMP-7 (protein) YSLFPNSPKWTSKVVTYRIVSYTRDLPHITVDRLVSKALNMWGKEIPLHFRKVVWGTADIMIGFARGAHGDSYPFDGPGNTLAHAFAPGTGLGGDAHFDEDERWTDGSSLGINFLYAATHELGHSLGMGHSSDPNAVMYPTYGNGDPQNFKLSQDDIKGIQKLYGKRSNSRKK	92
Cathepsin G (protein) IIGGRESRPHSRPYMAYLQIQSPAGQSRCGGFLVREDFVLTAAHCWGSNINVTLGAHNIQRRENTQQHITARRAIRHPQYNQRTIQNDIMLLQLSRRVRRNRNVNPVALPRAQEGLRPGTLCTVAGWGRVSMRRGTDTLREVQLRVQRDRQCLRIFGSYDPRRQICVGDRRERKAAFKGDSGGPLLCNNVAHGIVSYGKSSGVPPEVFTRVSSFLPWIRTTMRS	0
Matriptase (protein) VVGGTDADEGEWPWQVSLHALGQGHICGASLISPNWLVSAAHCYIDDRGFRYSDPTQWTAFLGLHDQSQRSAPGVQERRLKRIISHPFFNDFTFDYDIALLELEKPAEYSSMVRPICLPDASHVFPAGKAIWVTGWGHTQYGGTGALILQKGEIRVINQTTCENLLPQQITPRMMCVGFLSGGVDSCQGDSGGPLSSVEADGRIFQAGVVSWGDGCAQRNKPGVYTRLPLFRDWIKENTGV	42
